- TESTED SYSTEM: Mas-related G-protein coupled receptor member X1 (Homo sapiens)
- Sequence (Q96LB2 whole entry, looked up): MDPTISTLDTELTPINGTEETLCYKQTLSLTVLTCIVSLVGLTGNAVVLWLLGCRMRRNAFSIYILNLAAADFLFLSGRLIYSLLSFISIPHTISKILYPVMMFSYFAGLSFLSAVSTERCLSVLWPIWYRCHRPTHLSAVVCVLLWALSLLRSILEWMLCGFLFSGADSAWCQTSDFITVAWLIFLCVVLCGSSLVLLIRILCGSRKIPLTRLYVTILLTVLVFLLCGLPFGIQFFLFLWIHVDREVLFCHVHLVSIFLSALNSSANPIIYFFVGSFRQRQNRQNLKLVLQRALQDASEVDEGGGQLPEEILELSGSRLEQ
- TEST NAME: Antagonist activity at MrgX1 in mouse or rat DRG neurons assessed as action potential by whole-cell patch clamp method
- Type: functional
QUANTITY NAME: IC50 (µM)

> print(dat)
                                   molecule  quantity.name  numeric.result
1  N#Cc1ccc(COC2C3CCN(CC3)C2C(c2ccccc2)c2ccccc2)cc1 (stereo unspecified)           IC50             5.6
